- assayed_system: 11-beta-hydroxysteroid dehydrogenase 1 (Homo sapiens, UniProt P28845)
- Sequence (P28845 whole entry): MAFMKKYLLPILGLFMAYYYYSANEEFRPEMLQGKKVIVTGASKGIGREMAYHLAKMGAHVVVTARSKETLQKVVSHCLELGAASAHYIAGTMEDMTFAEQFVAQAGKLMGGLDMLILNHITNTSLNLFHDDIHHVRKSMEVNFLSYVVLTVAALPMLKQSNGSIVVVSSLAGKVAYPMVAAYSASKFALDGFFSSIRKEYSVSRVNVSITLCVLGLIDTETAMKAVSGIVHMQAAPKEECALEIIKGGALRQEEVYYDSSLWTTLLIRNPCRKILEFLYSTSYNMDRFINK
- assay_text: Inhibition of 11beta-HSD1 (unknown origin) using 3H-cortisone as substrate by scintillation proximity assay
Rule for this label: fulfilled means IC50 is less than 7 nM; not fulfilled means IC50 is at least 7 nM.

Sample answers from the record:
>>> df
                               given_smiles                            assayed_system  assigned_label
0  N#Cc1cncc(-c2ccc(CN3C[C@H](O)C[C@]34CCN(C3CCCCC3)C4=O)cc2)c1  11-beta-hydroxysteroid dehydrogenase 1 (Homo sapiens, UniProt P28845)   not fulfilled
1  N#Cc1ccc(-c2ccc(CN3C[C@H](O)C[C@]34CCN(C3CCCCC3)C4=O)cn2)cc1  11-beta-hydroxysteroid dehydrogenase 1 (Homo sapiens, UniProt P28845)   not fulfilled

query: State whether 7 nM exceeds IC50 recorded for O=C1N(C2CCCCC2)CC[C@]12C[C@@H](O)CN2Cc1ccc(-c2ccc(F)cc2)nc1 .
result: not fulfilled

query: State whether 7 nM exceeds IC50 recorded for CNC(=O)c1ccc(-c2ccc(CN3C[C@@H](F)C[C@]34CCN(C3CCCCC3)C4=O)cc2)cn1 .
result: fulfilled

Measured values drawn from ChEMBL document CHEMBL5104129 for this set.
